target: glucagon receptor; experiment: cell-based or functional assay
Square brackets hold non-standard residues; d marks the D form. Ends that are not written are not given here. Aib = CC(C)(N)C(=O)O
readout.kind: In vitro activity (Relative Activity to SEQ ID NO: 1, %)

>>> readout_value("HSQGTFTSDYSKYLDSCEADDFVQWLMNT [glucagon derivative of SEQ ID NO: 6]")
"< 0.1%"
>>> readout_value("Y[Aib]QGTFTSDYSKYLDCRRAQVFVQWLMRT [glucagon derivative of SEQ ID NO: 16]")
"4.2%"
>>> readout_value("Y[Aib]QGTFTSDCSKYLDSRRAQDFVQWLMNT [glucagon derivative of SEQ ID NO: 43]")
"1.6%"
>>> readout_value("HSQGTFTSDYSKYLDSCDAQDFVQWLMNT [glucagon derivative of SEQ ID NO: 4]")
"< 0.1%"
>>> readout_value("Y[Aib]QGTFTSDYSCYLDEKRAKEFVQWLMNT [glucagon derivative of SEQ ID NO: 45]")
"5.2%"
>>> readout_value("Y[Aib]QGTFCSDYSKYLDSRRAQDFVQWLMNT [glucagon derivative of SEQ ID NO: 42]")
"37.9%"
